# System Under Test: human nicotinic acetylcholine receptor (nAChR α3β4) (Homo sapiens, UniProt P30926+P32297)
# Construct: purchased contracted research organization (eurofinsdiscoveryservices.com) item CYL8057IF2
# Sequence (P32297 32-505): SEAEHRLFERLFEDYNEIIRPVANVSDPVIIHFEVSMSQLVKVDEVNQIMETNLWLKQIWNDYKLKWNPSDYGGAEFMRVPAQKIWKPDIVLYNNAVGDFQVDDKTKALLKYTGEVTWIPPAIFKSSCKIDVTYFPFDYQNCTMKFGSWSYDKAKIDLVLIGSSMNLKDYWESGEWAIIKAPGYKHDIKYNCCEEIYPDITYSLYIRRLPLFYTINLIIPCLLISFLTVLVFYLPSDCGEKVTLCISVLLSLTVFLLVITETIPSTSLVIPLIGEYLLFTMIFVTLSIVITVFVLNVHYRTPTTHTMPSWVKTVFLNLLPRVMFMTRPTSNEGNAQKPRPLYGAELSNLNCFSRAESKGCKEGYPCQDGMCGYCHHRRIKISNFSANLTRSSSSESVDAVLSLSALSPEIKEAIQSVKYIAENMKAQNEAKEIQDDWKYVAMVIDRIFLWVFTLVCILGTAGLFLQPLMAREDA
# Sequence (P30926 22-498): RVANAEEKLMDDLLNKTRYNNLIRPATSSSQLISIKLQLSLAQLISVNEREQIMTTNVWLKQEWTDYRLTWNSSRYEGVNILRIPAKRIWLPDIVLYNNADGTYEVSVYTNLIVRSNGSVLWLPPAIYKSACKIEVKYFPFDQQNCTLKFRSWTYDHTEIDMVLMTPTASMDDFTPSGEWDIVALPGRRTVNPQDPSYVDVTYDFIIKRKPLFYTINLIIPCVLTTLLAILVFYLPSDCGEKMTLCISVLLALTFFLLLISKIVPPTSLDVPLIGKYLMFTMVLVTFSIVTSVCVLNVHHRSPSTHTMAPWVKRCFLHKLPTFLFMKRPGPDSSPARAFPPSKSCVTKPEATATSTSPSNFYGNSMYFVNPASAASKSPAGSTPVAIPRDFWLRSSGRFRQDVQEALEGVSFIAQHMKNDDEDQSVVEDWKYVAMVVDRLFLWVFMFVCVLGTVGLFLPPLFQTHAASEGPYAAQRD
# Assay Comment: nAChR α3β4 inhibition, electrophysiology (commercial)
# Format: cell-based
Where a name gives a salt, the structure may show the parent alone.
Endpoint Label: pIC50
// pIC50: -log10(molar conc.)

So, CCC1CC2CC3c4[nH]c5ccc(O)cc5c4CCN(C2)C13 (stereo not shown) [Noribogaine, Noribogaine hydrochloride] ? Its pIC50 was 5.30

====

# Assay Comment: Pharmacokinetic study in mice (plasma and brain), with estimated free drug concentrations
# Format: in vivo, mouse
# Experimental Parameters: male, C57BL/6, mouse, brain, sc, 10 mg/kg; male C57BL/6 mice, s.c. 10 mg/kg
Where a name gives a salt, the structure may show the parent alone.
Endpoint Label: AUC(0-t) (µg·h/mL)
Reply numerically in µg·h/mL, unit not repeated.

// AUC(0-t) lookup, molecule = CCC1CC2CC3c4[nH]c5ccc(O)cc5c4CCN(C2)C13 (stereo not shown) [Noribogaine, Noribogaine hydrochloride] , result: 11.7

====

# Assay Comment: Pharmacokinetic study in mice (plasma and brain), with estimated free drug concentrations
# Type: in vivo, mouse
# Experimental Parameters: mouse, sc; plasma; male C57BL/6 mice, s.c. 10 mg/kg
Counter-ions that a name gives are not always drawn.
Endpoint Label: Tmax (min)
Enter your answer as a number in min; do not include the unit.

Tmax measured on CCC1CC2CC3c4[nH]c5ccc(O)cc5c4CCN(C2)C13 (stereo not shown) [Noribogaine, Noribogaine hydrochloride] = 30

====

# Assay Comment: Pharmacokinetic study in mice (plasma and brain), with estimated free drug concentrations
# Type: in vivo, mouse
# Experimental Parameters: male, C57BL/6, mouse, plasma, sc, 10 mg/kg; male C57BL/6 mice, single s.c. 10 mg/kg
Where a name gives a salt, the structure may show the parent alone.
Endpoint Label: AUC(0-inf) (ng·h/mL)
Express the result in ng·h/mL but write the number alone.

// AUC(0-inf) value for CCC1CC2CC3c4[nH]c5ccc(O)cc5c4CCN(C2)C13 (stereo not shown) [Noribogaine, Noribogaine hydrochloride] : 5230

====

# Assay Comment: Pharmacokinetic study in mice (plasma and brain), with estimated free drug concentrations
# Type: in vivo, mouse
# Experimental Parameters: male, C57BL/6, mouse, brain, sc, 10 mg/kg, Brain (brain conc. as ng/g); male C57BL/6 mice, single s.c. 10 mg/kg
Structures can show the parent of a compound that is named as a salt.
Endpoint Label: Cmax (ng/mL)
Give the number; ng/mL is assumed, so skip it.

GET /value?item= CCC1CC2CC3c4[nH]c5ccc(O)cc5c4CCN(C2)C13 (stereo not shown) [Noribogaine, Noribogaine hydrochloride] &field=Cmax returns 5090

====

# System Under Test: human nicotinic acetylcholine receptor (nAChR α3β4) (Homo sapiens, UniProt P30926+P32297)
# Construct: purchased contracted research organization (eurofinsdiscoveryservices.com) item CYL8057IF2
# Assay Comment: nAChR α3β4 inhibition, electrophysiology (commercial)
# Type: cell-based
# Experimental Parameters: electrophysiology; n = 1; (95% CI)
Where a name gives a salt, the structure may show the parent alone.
Endpoint Label: pIC50
The meaning of pIC50 here: minus log10 of the concentration in molar units.

Reported pIC50 for CCC1CC2CC3c4[nH]c5ccc(O)cc5c4CCN(C2)C13 (stereo not shown) [Noribogaine, Noribogaine hydrochloride] was 5.30

====

# Assay Comment: Pharmacokinetic study in mice (plasma and brain), with estimated free drug concentrations
# Type: in vivo, mouse
# Experimental Parameters: male, C57BL/6, mouse, plasma, sc, 10 mg/kg; male C57BL/6 mice, s.c. 10 mg/kg
Counter-ions that a name gives are not always drawn.
Endpoint Label: AUC(0-t) (ng·h/mL)
The response must be a number in ng·h/mL with no trailing unit.

Recorded result, CCC1CC2CC3c4[nH]c5ccc(O)cc5c4CCN(C2)C13 (stereo not shown) [Noribogaine, Noribogaine hydrochloride] , AUC(0-t): 5220

====

# Assay Comment: Pharmacokinetic study in mice (plasma and brain), with estimated free drug concentrations
# Format: in vivo, mouse
# Experimental Parameters: male, C57BL/6, mouse, plasma, sc, 10 mg/kg, 1 h; mice, 10 mg/kg s.c.; individual animals; read-out: Free Plasma Concentration
Counter-ions that a name gives are not always drawn.
Endpoint Label: concentration at 1 h

Measured concentration at 1 h of CCC1CC2CC3c4[nH]c5ccc(O)cc5c4CCN(C2)C13 (stereo not shown) [Noribogaine, Noribogaine hydrochloride] : 1960 nM

====

# Assay Comment: Pharmacokinetic study in mice (plasma and brain), with estimated free drug concentrations
# Assay type: in vivo, mouse
# Experimental Parameters: male, C57BL/6, mouse, brain, sc, 10 mg/kg; male C57BL/6 mice, single s.c. 10 mg/kg
Where a name gives a salt, the structure may show the parent alone.
Endpoint Label: AUC(0-inf) (ng·h/mL)
Give the number; ng·h/mL is assumed, so skip it.

The compound listed as CCC1CC2CC3c4[nH]c5ccc(O)cc5c4CCN(C2)C13 (stereo not shown) [Noribogaine, Noribogaine hydrochloride] has a reported AUC(0-inf) of 12100

====

# Assay Comment: Pharmacokinetic study in mice (plasma and brain), with estimated free drug concentrations
# Assay type: in vivo, mouse
# Experimental Parameters: male, C57BL/6, mouse, plasma, sc, 10 mg/kg, 0.25 h; mice, 10 mg/kg s.c.; individual animals; read-out: Plasma Concentration (total)
Where a name gives a salt, the structure may show the parent alone.
Endpoint Label: concentration at 0.25 h (µM)
Report as a plain number; the unit µM is understood.

In plain terms, CCC1CC2CC3c4[nH]c5ccc(O)cc5c4CCN(C2)C13 (stereo not shown) [Noribogaine, Noribogaine hydrochloride] has a documented concentration at 0.25 h of 4.84

====

# Assay Comment: in vitro
# Experimental Parameters: human, plasma, pH 7.4
Where a name gives a salt, the structure may show the parent alone.
Endpoint Label: fraction unbound
Give your answer as a number; write no unit.

The molecule identified as CCC1CC2CC3c4[nH]c5ccc(O)cc5c4CCN(C2)C13 (stereo not shown) [Noribogaine, Noribogaine hydrochloride] registered its fraction unbound at 0.401

====

# Assay Comment: Pharmacokinetic study in mice (plasma and brain), with estimated free drug concentrations
# Assay type: in vivo, mouse
# Experimental Parameters: male, C57BL/6, mouse, brain, sc, 10 mg/kg, 2 h; mice, 10 mg/kg s.c.; individual animals; read-out: Brain Concentration (total)
Structures can show the parent of a compound that is named as a salt.
Endpoint Label: concentration at 2 h (µM)
Use µM as the unit, but write only the number.

Lab note: CCC1CC2CC3c4[nH]c5ccc(O)cc5c4CCN(C2)C13 (stereo not shown) [Noribogaine, Noribogaine hydrochloride] gave concentration at 2 h of 7.82

====

# Assay Comment: Pharmacokinetic study in mice (plasma and brain), with estimated free drug concentrations
# Assay type: in vivo, mouse
# Experimental Parameters: mouse, sc; brain; male C57BL/6 mice, s.c. 10 mg/kg
Structures can show the parent of a compound that is named as a salt.
Endpoint Label: Tmax (min)
Number in min, nothing else.

Form: compound = CCC1CC2CC3c4[nH]c5ccc(O)cc5c4CCN(C2)C13 (stereo not shown) [Noribogaine, Noribogaine hydrochloride] ; Tmax = 30

====

# Assay Comment: Pharmacokinetic study in mice (plasma and brain), with estimated free drug concentrations
# Assay type: in vivo, mouse
# Experimental Parameters: male, C57BL/6, mouse, plasma, sc, 10 mg/kg; male C57BL/6 mice, s.c. 10 mg/kg
Structures can show the parent of a compound that is named as a salt.
Endpoint Label: AUC(0-inf)
Kindly format the answer as number then unit.

// AUC(0-inf) value for CCC1CC2CC3c4[nH]c5ccc(O)cc5c4CCN(C2)C13 (stereo not shown) [Noribogaine, Noribogaine hydrochloride] : 5230 ng·h/mL

====

# Assay Comment: Pharmacokinetic study in mice (plasma and brain), with estimated free drug concentrations
# Format: in vivo, mouse
# Experimental Parameters: male, C57BL/6, mouse, brain, sc, 10 mg/kg; male C57BL/6 mice, single s.c. 10 mg/kg
Structures can show the parent of a compound that is named as a salt.
Endpoint Label: Cmax

Record CCC1CC2CC3c4[nH]c5ccc(O)cc5c4CCN(C2)C13 (stereo not shown) [Noribogaine, Noribogaine hydrochloride] , field Cmax: 17.2 µM

====

# System Under Test: hMOR (Homo sapiens)
# Sequence (P35372 whole entry): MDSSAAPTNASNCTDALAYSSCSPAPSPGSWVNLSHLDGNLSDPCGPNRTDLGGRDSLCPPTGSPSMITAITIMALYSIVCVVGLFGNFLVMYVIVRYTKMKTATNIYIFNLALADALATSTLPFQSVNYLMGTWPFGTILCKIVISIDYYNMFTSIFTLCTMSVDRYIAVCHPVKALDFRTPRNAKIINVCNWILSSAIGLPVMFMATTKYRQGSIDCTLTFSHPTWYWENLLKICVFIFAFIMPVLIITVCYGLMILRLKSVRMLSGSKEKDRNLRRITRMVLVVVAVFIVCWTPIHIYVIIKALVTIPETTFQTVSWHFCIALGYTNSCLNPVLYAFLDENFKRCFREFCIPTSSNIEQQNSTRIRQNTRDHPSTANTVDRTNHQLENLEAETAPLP
# Assay Comment: cell-based
Counter-ions that a name gives are not always drawn.
Endpoint Label: pEC50
By convention, pEC50 is the negative base-10 log of a molar concentration.

Measured pEC50, CCC1CC2CC3c4[nH]c5ccc(O)cc5c4CCN(C2)C13 (stereo not shown) [Noribogaine, Noribogaine hydrochloride] : 4.95

====

# System Under Test: rat NMDA receptor
# Assay Comment: rat NMDA radioligand displacement ([3H]MK-801)
# Assay type: binding
Counter-ions that a name gives are not always drawn.
Endpoint Label: IC50 (µM)
# unit: µM | format: bare number

Query CCC1CC2CC3c4[nH]c5ccc(O)cc5c4CCN(C2)C13 (stereo not shown) [Noribogaine, Noribogaine hydrochloride] yields IC50 of 42
